# system under test: UniProt Q9UBN7
# Sequence (Q9UBN7 whole entry): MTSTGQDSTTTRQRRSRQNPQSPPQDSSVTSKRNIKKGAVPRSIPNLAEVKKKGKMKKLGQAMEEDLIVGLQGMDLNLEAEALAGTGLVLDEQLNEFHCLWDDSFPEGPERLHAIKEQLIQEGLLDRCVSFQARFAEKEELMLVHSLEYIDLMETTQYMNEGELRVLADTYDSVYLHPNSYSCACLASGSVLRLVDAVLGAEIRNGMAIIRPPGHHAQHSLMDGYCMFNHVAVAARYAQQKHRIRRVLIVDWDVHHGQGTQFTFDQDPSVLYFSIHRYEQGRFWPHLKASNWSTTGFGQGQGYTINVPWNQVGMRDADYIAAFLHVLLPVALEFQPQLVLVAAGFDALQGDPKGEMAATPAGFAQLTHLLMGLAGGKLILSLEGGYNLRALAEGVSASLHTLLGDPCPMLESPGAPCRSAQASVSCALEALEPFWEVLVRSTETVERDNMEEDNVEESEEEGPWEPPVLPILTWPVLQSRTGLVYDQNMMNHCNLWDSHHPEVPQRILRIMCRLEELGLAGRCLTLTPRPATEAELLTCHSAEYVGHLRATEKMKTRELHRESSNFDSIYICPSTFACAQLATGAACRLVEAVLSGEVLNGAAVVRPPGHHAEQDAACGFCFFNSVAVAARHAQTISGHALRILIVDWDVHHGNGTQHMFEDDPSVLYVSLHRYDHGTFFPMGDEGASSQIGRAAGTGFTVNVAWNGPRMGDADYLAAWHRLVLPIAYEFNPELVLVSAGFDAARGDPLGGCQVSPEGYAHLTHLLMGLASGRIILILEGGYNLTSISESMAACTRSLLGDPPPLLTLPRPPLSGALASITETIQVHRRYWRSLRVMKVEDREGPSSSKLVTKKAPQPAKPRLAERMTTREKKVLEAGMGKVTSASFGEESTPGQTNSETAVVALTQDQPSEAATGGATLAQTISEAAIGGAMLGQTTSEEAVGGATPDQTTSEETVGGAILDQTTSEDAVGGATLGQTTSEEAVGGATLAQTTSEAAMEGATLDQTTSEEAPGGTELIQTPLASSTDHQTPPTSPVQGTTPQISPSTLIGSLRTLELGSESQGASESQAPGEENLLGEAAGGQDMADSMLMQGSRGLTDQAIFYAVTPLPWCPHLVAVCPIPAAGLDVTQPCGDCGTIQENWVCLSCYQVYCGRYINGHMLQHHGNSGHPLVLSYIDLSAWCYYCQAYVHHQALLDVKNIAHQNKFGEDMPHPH
# protocol details: Inhibition of full length recombinant human N-terminal GST-tagged HDAC6 expressed in baculovirus-infected Sf9 insect cells using RHKK(Ac)AMC as substrate after 90 mins by fluorimeter
quantity: pKi
pKi here is simply -log10 of the concentration when that concentration is written in mol/L.

Reference set (2 entries):
- compound: "O=C(NO)c1ccc(Cn2c3c(c4ccccc42)C2CCN(C3)C2)cc1 (centres undefined)"
  pKi: 8.19
- compound: "CN1C(=O)C2CN(Cc3c2c2ccccc2n3Cc2ccc(C(=O)NO)cc2)C1=S (centres undefined)"
  pKi: 9.35

stdin: What value of pKi has been recorded for this entry: CN1CC2CN(Cc3c2c2ccccc2n3Cc2ccc(C(=O)NO)cc2)C1=O (centres undefined)
stdout: 9.29

stdin: What value of pKi has been recorded for this entry: CN1C(=O)C2CN(Cc3c2c2cc(OCCN4CCOCC4)ccc2n3Cc2ccc(C(=O)NO)cc2)C1=O.Cl (centres undefined)
stdout: 9.32

stdin: What value of pKi has been recorded for this entry: CN1C(=O)C2CN(Cc3c2c2cc(O)ccc2n3Cc2ccc(C(=O)NO)cc2)C1=O (centres undefined)
stdout: 9.38

stdin: What value of pKi has been recorded for this entry: COc1ccc2c3c(n(Cc4ccc(C(=O)NO)cc4)c2c1)CN1CC3C(=O)N(C)C1=O (centres undefined)
stdout: 9.49

stdin: What value of pKi has been recorded for this entry: COc1ccc2c(c1)c1c(n2Cc2ccc(C(=O)NO)cc2)CN2CC1C(=O)N(C)C2=O (centres undefined)
stdout: 9.82

stdin: What value of pKi has been recorded for this entry: CN1C(=O)C2CN(Cc3c2c2ccccc2n3Cc2cccc(/C=C/C(=O)NO)c2)C1=O (centres undefined)
stdout: 7.14

stdin: What value of pKi has been recorded for this entry: CN1C(=O)[C@@H]2CN(Cc3c2c2ccccc2n3Cc2ccc(C(=O)NO)cc2)C1=O
stdout: 9.15

* * *

# system under test: Histone deacetylase 3/Nuclear receptor corepressor 2 (HDAC3/NCoR2) (Homo sapiens)
# Sequence (O15379 whole entry): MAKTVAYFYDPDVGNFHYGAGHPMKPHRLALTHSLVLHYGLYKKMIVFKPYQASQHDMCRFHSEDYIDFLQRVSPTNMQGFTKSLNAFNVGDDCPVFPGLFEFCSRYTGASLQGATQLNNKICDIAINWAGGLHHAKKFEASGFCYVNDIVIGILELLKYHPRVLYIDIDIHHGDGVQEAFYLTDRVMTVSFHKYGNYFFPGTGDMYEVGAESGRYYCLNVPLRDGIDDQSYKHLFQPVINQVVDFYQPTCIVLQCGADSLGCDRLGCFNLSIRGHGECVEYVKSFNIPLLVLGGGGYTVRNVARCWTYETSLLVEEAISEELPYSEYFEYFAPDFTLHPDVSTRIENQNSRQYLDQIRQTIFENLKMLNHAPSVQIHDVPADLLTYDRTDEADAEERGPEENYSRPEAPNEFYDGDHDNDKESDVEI
# Sequence (Q9Y618 whole entry, further chain): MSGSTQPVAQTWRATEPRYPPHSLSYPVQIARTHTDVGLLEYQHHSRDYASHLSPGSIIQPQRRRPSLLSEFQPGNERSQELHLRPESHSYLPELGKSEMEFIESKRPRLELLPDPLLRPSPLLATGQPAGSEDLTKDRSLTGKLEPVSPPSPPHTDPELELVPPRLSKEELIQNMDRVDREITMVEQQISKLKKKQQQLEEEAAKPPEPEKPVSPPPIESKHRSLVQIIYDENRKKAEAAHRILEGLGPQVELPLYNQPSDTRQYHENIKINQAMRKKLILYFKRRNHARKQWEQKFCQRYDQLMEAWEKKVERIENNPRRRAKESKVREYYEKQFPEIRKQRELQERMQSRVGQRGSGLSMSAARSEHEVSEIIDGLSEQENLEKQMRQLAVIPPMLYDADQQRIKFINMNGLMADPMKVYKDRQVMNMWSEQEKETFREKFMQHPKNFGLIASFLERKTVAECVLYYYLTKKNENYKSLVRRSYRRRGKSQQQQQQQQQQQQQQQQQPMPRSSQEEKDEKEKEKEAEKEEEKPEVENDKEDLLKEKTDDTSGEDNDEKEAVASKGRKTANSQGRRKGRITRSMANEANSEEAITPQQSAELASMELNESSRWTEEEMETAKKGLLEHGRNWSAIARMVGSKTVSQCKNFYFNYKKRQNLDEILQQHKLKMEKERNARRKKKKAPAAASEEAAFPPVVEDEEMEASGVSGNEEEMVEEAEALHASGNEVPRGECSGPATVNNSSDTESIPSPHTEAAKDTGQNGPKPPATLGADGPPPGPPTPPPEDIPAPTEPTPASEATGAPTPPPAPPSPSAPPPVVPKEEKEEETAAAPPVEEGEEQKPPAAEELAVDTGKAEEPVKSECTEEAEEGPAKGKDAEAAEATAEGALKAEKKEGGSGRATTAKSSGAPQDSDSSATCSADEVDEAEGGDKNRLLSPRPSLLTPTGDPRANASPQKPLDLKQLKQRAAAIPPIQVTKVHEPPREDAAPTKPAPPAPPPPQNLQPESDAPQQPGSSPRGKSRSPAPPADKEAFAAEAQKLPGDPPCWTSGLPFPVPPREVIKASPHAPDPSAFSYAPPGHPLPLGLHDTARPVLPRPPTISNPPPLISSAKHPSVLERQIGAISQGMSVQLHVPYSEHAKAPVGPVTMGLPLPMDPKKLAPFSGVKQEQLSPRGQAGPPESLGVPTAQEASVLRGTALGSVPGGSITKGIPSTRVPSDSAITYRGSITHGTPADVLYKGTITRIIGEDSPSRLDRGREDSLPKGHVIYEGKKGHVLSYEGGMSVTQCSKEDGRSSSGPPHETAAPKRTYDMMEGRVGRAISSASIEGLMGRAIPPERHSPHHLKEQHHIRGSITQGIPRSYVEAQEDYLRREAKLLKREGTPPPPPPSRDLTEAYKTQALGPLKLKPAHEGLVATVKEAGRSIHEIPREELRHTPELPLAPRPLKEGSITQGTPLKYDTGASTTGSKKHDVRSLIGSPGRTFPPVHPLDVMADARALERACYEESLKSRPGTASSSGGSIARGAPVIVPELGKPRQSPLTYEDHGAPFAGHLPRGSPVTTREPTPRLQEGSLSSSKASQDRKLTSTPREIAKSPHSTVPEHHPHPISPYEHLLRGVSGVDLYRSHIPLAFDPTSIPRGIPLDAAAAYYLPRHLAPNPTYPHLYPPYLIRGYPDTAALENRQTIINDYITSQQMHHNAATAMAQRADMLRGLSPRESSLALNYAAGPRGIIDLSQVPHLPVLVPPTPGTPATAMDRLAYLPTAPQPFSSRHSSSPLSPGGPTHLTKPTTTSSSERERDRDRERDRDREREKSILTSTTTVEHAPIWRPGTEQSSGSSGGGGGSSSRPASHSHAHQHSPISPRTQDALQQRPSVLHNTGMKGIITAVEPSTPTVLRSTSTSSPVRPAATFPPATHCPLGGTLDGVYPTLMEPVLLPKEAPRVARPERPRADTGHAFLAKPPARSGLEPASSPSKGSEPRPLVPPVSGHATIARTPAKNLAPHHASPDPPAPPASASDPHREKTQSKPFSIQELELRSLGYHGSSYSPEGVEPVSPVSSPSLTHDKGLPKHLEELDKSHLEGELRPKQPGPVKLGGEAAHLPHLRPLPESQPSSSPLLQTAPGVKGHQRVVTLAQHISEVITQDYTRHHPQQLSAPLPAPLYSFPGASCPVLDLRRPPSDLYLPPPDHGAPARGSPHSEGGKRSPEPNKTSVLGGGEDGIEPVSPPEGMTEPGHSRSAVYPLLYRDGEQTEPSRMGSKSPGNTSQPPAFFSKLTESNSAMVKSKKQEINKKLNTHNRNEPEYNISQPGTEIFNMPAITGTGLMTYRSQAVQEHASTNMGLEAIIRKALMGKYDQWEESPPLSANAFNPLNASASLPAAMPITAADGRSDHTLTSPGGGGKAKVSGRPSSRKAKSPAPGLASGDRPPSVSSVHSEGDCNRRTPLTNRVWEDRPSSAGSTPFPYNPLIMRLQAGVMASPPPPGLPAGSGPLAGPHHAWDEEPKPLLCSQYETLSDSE
quantity: Ki (µM)
Could you give me the number in µM? Just the number is fine.

stdin: Reported Ki for Histone deacetylase 3/Nuclear receptor corepressor 2 (HDAC3/NCoR2) (Homo sapiens), given CN1C(=O)C2CN(Cc3c2c2ccccc2n3Cc2ccc(C(=O)NO)cc2)C1=O (stereo unspecified) ?
stdout: 0.306

* * *

# system under test: Protein deacetylase HDAC6 (Homo sapiens)
# Sequence (whole entry): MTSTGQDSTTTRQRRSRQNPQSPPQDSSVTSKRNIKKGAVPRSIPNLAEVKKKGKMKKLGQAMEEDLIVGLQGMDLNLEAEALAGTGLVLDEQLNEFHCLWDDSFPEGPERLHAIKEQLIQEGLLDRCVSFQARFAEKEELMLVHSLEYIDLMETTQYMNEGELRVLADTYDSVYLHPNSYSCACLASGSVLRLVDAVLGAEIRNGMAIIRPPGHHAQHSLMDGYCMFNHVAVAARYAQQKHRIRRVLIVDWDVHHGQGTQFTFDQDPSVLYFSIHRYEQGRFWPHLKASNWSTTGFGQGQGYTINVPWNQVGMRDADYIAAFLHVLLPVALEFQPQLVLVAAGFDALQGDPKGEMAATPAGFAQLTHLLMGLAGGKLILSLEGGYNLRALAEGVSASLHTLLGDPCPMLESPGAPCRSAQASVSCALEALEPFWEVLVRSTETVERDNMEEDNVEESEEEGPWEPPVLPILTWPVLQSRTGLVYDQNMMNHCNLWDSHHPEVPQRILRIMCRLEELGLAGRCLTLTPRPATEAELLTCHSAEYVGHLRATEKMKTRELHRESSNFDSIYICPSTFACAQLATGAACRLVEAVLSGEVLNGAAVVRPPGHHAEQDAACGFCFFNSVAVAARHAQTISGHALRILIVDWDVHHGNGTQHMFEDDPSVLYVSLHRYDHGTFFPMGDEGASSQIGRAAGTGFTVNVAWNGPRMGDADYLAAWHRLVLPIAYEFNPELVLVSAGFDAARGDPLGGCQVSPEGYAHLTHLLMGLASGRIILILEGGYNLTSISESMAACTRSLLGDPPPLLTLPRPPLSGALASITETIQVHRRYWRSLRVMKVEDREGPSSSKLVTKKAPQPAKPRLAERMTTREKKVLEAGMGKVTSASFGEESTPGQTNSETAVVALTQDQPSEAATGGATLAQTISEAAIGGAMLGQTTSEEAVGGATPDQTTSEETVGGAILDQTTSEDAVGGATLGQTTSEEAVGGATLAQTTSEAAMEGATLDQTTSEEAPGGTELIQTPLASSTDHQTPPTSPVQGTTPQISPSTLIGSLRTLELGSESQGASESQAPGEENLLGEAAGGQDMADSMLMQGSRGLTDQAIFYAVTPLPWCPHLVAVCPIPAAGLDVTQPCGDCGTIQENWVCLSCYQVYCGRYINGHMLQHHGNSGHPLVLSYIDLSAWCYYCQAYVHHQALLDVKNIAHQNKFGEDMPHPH
# protocol details: Inhibition of HDAC6 in human MV4-11 cells assessed as induction of alpha-tubulin hyperacetylation after 24 hrs by Western blot method
# Type: cell-based
Calls of active or inactive are those of the source. The rule behind the calls is not given here.
Classes to choose from: t for active, f for inactive

Answered cases to consult:
- compound: "CN1CC2CN(Cc3c2c2ccccc2n3Cc2ccc(C(=O)NO)cc2)C1=O (configuration not stated)"
  system under test: "Protein deacetylase HDAC6 (Homo sapiens)"
  assigned label: "t"
- compound: "COc1ccc2c(c1)c1c(n2Cc2ccc(C(=O)NO)cc2)CN2CC1C(=O)N(C)C2 (configuration not stated)"
  system under test: "Protein deacetylase HDAC6 (Homo sapiens)"
  assigned label: "f"

In the following, a different compound is considered.
stdin: Please share the test call associated with COc1ccc2c3c(n(Cc4ccc(C(=O)NO)cc4)c2c1)CN1CC3C(=O)N(C)C1=O (configuration not stated) .
stdout: t

* * *

# system under test: Protein deacetylase HDAC6 (Homo sapiens)
# Sequence (whole entry): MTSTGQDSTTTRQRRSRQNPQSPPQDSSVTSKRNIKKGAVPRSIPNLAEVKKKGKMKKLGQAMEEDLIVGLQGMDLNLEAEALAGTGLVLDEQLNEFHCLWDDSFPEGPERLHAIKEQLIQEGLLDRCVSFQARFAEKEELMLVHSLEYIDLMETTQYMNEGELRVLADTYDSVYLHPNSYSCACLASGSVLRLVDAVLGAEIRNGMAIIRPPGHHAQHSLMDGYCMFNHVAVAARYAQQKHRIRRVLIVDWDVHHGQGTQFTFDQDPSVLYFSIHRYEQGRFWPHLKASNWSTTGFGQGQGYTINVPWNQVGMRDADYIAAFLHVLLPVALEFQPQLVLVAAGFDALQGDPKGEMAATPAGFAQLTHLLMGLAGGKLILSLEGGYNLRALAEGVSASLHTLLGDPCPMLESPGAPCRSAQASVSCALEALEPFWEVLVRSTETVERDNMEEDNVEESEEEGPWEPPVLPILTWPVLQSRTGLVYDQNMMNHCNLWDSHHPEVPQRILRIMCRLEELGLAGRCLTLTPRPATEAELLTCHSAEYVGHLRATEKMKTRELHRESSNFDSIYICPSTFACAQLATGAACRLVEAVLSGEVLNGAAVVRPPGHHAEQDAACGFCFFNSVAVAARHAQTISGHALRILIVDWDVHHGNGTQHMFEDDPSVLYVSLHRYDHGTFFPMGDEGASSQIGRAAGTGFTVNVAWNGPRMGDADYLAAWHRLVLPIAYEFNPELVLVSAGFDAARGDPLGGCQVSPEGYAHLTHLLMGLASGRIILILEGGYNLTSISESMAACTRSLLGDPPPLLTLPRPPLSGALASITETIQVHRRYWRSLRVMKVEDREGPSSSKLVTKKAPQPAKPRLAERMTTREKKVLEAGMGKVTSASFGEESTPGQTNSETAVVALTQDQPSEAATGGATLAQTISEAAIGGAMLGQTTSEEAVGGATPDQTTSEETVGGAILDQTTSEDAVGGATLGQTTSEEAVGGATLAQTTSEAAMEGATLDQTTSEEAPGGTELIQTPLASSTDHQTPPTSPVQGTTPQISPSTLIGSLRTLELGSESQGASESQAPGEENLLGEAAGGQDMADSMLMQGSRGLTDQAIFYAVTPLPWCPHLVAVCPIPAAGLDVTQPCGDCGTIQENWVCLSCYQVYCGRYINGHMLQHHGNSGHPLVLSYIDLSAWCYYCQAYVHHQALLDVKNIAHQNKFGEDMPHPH
# protocol details: Inhibition of HDAC6 in human MV4-11 cells assessed as induction of alpha-tubulin hyperacetylation after 24 hrs by Western blot method
# Format: cell-based
Active and inactive are the calls of the source. The rule behind the calls is not given here.
Classes to choose from: T (active), F (inactive)

- compound: "CN1C(=O)N2Cc3c(c4ccccc4n3Cc3ccc(C(=O)NO)cc3)C(C2)C1=S (centres undefined)"
  assigned label: "T"
- compound: "CN1C(=O)C2CN(Cc3c2c2ccccc2n3Cc2ccc(C(=O)NO)cc2)C1=S (centres undefined)"
  assigned label: "F"
- compound: "COc1ccc2c(c1)c1c(n2Cc2ccc(C(=O)NO)cc2)CN2CC1C(=O)N(C)C2=O (centres undefined)"
  assigned label: "T"

In the following, a different compound is considered.
stdin: Please share the test call associated with CN1CN2Cc3c(c4ccccc4n3Cc3ccc(C(=O)NO)cc3)C(C2)C1=O (centres undefined) .
stdout: F
